experiment: Pharmacokinetic measurements of H3B-6527 capsules in patients (trial NCT02834780), plasma LC-MS/MS; type: in vivo, human; conditions: human, plasma, oral, 500 mg, 500 mg BID, fed, Day 8; Table 6, actual times after QC; read-out: Half-life, geometric mean (CV%) (converted)
result_type: half-life (h)
Numeric answer only, unit h assumed.

Q: For the molecule C=CC(=O)Nc1cc(N2CCN(CC)CC2)ccc1Nc1cc(N(C)C(=O)Nc2c(Cl)c(OC)cc(OC)c2Cl)ncn1 , what half-life is on record?
Result: 2.99

----------
Assay: Pharmacokinetic measurements of H3B-6527 capsules in patients (trial NCT02834780), plasma LC-MS/MS
Assay type: in vivo, human
Conditions: human, plasma, oral, 500 mg, 500 mg BID, fasted, Day 8; Table 6, actual times after QC; read-out: AUC, geometric mean (CV%)
Experimental: A description of the first in human clinical trial for H3B-6527 can be found at the ClinicalTrials.gov by searching for trial identifier NCT02834780. […] Blood samples are collected at the planned time points from each patient and centrifuged. […] The concentration data are then analyzed using Phoenix® WinNonlin software to obtain PK parameters. […]
result_type: AUC (µg·h/mL)
Numeric answer only, unit µg·h/mL assumed.

Q: For the compound C=CC(=O)Nc1cc(N2CCN(CC)CC2)ccc1Nc1cc(N(C)C(=O)Nc2c(Cl)c(OC)cc(OC)c2Cl)ncn1 [H3B-6527] , what AUC is on record?
Result: 1.11
